conditions: basic group
Class criterion met: pKa at least 6. Class criterion not met: pKa below 6.

>>> qualitative_label("C#CC(CC)(CC)N(C)C(C)C")
"criterion met"

*Q* Identify whether the reported pKa of the following compound is 6 or greater: NCCCCCC#CC#CCCC(=O)[O-]
*A* criterion met

*Q* Identify whether the reported pKa of the following compound is 6 or greater: Nc1cccc([NH3+])c1
*A* criterion not met

*Q* Identify whether the reported pKa of the following compound is 6 or greater: COCCN
*A* criterion met

*Q* Identify whether the reported pKa of the following compound is 6 or greater: C[N+](C)(C)CCN
*A* criterion met

*Q* Identify whether the reported pKa of the following compound is 6 or greater: Nc1cnc2cc3ccccc3cc2c1
*A* criterion not met

*Q* Identify whether the reported pKa of the following compound is 6 or greater: O=C(Nc1cccnc1)c1ccccc1
*A* criterion not met

*Q* Identify whether the reported pKa of the following compound is 6 or greater: CCc1nc2ccccc2[nH]1
*A* criterion met

*Q* Identify whether the reported pKa of the following compound is 6 or greater: Cn1cncc1C[C@H](NC(=O)CCN)C(=O)[O-]
*A* criterion met

*Q* Identify whether the reported pKa of the following compound is 6 or greater: CNc1ncnc2nc[nH]c12
*A* criterion not met

*Q* Identify whether the reported pKa of the following compound is 6 or greater: CN1[C@H]2CC[C@@H]1[C@H](C(=O)[O-])[C@H](O)C2
*A* criterion met

*Q* Identify whether the reported pKa of the following compound is 6 or greater: CCN(C)CCOCCN(C)C
*A* criterion met

###

details: acidic group
Class label 1: pKa at least 6. Class label 0: pKa below 6.

Look over these answered cases.
>>> qualitative_label("C[n+]1ccc(-c2nc3ccccc3[nH]2)cc1")
"label 1"
>>> qualitative_label("NC(=O)CCCc1ccccn1")
"label 0"
>>> qualitative_label("[NH3+]C(Cc1ccccc1)C(=O)O (centres undefined)")
"label 0"

*Q* Identify whether the reported pKa of the following molecule is 6 or greater: C[C@]12C[C@H](C(=O)O)OC(=O)[C@H]1CC[C@@]1(C)[C@@H]2[C@H]2CCC1(O)C(=O)O2
*A* label 0

*Q* Identify whether the reported pKa of the following molecule is 6 or greater: COc1ccc(O)c(N)c1
*A* label 1

*Q* Identify whether the reported pKa of the following molecule is 6 or greater: CC(C)CCC([NH3+])C(=O)O (centres undefined)
*A* label 0

###

settings: basic group
Class satisfied: pKa at least 7. Class not satisfied: pKa below 7.

Look over these answered cases.
>>> qualitative_label("CC(=O)N=C(N(C)C)N(C)C")
"satisfied"
>>> qualitative_label("Nc1ccc(S(=O)(=O)Nc2ncccn2)cc1")
"not satisfied"
>>> qualitative_label("CNc1ccc(C)cc1")
"not satisfied"
>>> qualitative_label("CCNc1nc(N)nc(N)n1")
"not satisfied"
>>> qualitative_label("C=CCN(CC1CO1)CC1CO1 (stereo not given)")
"not satisfied"

*Q* Identify whether the reported pKa of the following molecule is 7 or greater: CN(CCCN)CCCN
*A* satisfied

*Q* Identify whether the reported pKa of the following molecule is 7 or greater: CCCCCCCCCCCCCCCCN(CC(O)CC)CC(O)CC (stereo not given)
*A* not satisfied

*Q* Identify whether the reported pKa of the following molecule is 7 or greater: Cc1ncnc2c1NCCN2
*A* not satisfied

*Q* Identify whether the reported pKa of the following molecule is 7 or greater: CCCCCCNCc1ccc(C)cc1
*A* satisfied

*Q* Identify whether the reported pKa of the following molecule is 7 or greater: NCCCc1ccncc1
*A* satisfied

Data origin: the pKa sets of Baltruschat and Czodrowski (2020)
